Reported self-splicing fitness (ln) values follow for various sequences
- test_description: self-splicing fitness, log relative to wild type (ln ratio); higher = more splicing; Tetrahymena group I intron in knt gene, E. coli kanamycin selection, DiMSum; sequences stand for … in CUCUCU…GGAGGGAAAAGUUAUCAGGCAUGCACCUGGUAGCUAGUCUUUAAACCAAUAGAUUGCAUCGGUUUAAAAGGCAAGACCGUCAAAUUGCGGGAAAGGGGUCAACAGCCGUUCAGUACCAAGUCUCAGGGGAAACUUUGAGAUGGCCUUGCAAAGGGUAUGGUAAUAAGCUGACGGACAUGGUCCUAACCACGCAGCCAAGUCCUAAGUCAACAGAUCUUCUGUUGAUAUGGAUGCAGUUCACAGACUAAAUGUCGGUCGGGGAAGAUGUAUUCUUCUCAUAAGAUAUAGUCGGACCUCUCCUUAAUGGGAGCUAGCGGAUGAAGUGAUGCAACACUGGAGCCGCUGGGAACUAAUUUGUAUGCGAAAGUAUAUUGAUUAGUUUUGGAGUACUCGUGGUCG;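 note: selection with 25 µg/mL kanamycin versus none on LB agar overnight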
- experimental_conditions: 37 °C
endpoint_label: self-splicing fitness (ln)

          residue_string  assay_value
 0  AUGCAGCAAUAUUACGUCUC        -1.05
 1  CCGCAGCAAUAUUACGGUCU        -3.65
 2  AAGGAGCAAUAUUACGGCAG        -1.75
 3  GGGAAGCAAUAUUACGAAAU        -2.26
 4  AGACAGCAAUAUUACGGUUG        -1.87
 5  UCGGAGCAAUAUUACGUCAC        -2.68
 6  UUGGAGCAAUAUUACGAACG       -0.295
 7  CAACAGCAAUAUUACGGGGC         -3.4
 8  GCACAGCAAUAUUACGUAAC       -0.651
 9  AAUGAGCAAUAUUACGCCCU        -1.16
10  CUAGAGCAAUAUUACGUACU        -3.27
11  ACUGAGCAAUAUUACGGCAG       -0.311
12  AUGUAGCAAUAUUACGGCAU        -1.69
13  AUGCAGCAAUAUUACGUUUU        -1.65
14  UCAAAGCAAUAUUACGCAUA        -1.62
15  GAUUAGCAAUAUUACGCACC       -0.681
16  UCCGAGCAAUAUUACGCCAG        -2.24
17  UAACAGCAAUAUUACGAUCU        0.151
18  GUCGAGCAAUAUUACGCAUC       -0.574
19  AGUAAGCAAUAUUACGCUCC        -1.18
20  GUCAAGCAAUAUUACGAUUG        -3.59
21  CGUAAGCAAUAUUACGGUAC        -1.78
22  AGUCAGCAAUAUUACGACGU       -0.164
23  GCGUAGCAAUAUUACGAGUU       -0.803
24  AGUAAGCAAUAUUACGUCUA      -0.0188
25  ACUGAGCAAUAUUACGGUUA         -1.9
26  UGCCAGCAAUAUUACGUCUG        -1.48
27  CUAAAGCAAUAUUACGUGAC       -0.411
28  GUCGAGCAAUAUUACGUUGA        -3.79
29  UCCCAGCAAUAUUACGUACG        -2.93
30  AGUCAGCAAUAUUACGGCUG        -1.96
31  CAGAAGCAAUAUUACGACUU       0.0901
32  GUAUAGCAAUAUUACGGAAU        -2.39
33  AGUAAGCAAUAUUACGGCUG       -0.941
